Each entry below carries its recorded GI50.
Tested on: UACC-257 melanoma
assayInfo: NCI tumour cell line growth inhibition, 48 h

# chemicalSmiles, GI50
data = [
    ("COc1cc2c3c(n(CCCCN)c(=O)c2cc1OC)-c1cc2c(cc1C3=O)OCO2", "3.35 µM"),
    ("COc1cccc(-n2nc(C)c3c(N/N=C(\\C)c4ccncc4)ncnc32)c1", "> 25 µM"),
    ("Cc1ccc(-c2nc(C#N)c(S(=O)(=O)n3nc(C)cc3N)o2)cc1", "16.5 µM"),
]

----------
Test system: MDA-MB-435
Labels: active, inactive

# chemicalSmiles, classification
rows = [
    ("COC1=CC(c2ccc[nH]2)=N/C1=C\\c1[nH]c(C)c(C(=O)CCCCC(=O)NC(C)(C)C)c1C", "inactive"),
    ("CCn1cnc(C[C@H](NC(=O)[C@@H](NC(=O)Nc2cc(C(F)(F)F)cc(C(F)(F)F)c2)C(C)C)C(=O)OC)c1", "inactive"),
    ("O=C(Nc1ccncc1)C(=O)c1cn(Cc2ccc(Cl)cc2)c2ccccc12", "active"),
    ("O=C1c2cccc(NCCN=Cc3cc([N+](=O)[O-])ccc3O)c2C(=O)c2c(NCCN=Cc3cc([N+](=O)[O-])ccc3O)cccc21", "inactive"),
]
